// provenance: patent US8134007B2

Target: Human Nav1.8 (Homo sapiens)
Construct: expressed in transfected cells; host or cells: HEK293
Sequence (Q9Y5Y9 whole entry): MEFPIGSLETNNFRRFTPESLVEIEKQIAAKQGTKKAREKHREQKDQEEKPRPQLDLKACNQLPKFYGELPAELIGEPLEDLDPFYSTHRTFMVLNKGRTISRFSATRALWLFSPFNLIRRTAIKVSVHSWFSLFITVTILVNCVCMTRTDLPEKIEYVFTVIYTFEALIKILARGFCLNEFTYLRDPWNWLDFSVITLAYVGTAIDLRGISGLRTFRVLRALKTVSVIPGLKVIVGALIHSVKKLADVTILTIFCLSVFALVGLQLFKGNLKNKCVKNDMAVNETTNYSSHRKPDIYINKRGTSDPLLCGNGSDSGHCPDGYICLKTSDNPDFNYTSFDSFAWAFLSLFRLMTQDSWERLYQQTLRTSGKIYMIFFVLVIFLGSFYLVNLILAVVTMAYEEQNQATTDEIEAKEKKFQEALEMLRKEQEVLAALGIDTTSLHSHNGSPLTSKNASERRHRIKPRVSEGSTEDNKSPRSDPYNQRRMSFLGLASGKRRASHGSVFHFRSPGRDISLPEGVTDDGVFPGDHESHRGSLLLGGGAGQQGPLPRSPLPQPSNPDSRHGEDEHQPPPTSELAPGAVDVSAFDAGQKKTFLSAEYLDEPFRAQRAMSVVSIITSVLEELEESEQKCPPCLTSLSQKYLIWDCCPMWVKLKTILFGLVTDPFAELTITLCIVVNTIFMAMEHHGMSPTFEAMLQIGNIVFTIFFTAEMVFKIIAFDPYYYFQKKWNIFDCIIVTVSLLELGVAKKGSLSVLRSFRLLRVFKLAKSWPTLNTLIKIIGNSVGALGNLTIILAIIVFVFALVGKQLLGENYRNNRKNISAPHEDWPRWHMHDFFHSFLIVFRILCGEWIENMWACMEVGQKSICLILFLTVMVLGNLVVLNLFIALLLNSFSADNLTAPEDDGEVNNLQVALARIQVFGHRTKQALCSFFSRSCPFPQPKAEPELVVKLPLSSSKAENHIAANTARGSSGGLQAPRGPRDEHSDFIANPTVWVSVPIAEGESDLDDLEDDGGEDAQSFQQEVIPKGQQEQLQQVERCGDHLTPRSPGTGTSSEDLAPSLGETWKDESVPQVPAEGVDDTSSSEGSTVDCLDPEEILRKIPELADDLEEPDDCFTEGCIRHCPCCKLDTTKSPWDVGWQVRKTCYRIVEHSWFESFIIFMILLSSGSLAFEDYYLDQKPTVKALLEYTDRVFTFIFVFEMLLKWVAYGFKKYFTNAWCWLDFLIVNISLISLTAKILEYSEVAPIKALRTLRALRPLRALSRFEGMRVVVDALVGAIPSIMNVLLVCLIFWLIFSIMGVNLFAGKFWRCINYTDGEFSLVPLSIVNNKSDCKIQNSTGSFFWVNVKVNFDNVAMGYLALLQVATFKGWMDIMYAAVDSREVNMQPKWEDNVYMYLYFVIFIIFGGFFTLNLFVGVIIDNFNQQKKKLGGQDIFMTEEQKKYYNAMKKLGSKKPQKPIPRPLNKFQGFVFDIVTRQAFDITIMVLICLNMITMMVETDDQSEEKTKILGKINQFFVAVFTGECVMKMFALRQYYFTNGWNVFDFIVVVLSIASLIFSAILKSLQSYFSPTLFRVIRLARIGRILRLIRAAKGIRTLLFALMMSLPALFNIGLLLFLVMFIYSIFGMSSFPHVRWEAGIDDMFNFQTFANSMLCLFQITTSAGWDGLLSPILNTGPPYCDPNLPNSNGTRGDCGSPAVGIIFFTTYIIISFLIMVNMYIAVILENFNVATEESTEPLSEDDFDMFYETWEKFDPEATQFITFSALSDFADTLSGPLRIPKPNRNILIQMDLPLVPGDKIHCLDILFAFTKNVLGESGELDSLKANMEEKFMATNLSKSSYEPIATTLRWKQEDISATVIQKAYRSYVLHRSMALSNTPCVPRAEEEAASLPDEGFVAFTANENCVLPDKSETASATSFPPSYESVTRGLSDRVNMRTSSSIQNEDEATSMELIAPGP
Test: VIPR Assay for Nav1.8 Compounds (FRET membrane potential, deltamethrin opener)
Type: cell-based
Conditions: VIPR FRET membrane potential assay, deltamethrin opener; average of replicates; read-out: Nav1.8 IC50
Output true for records whose IC50 is lower than 2000 nM, false for records at or above 2000 nM.

chemical_smiles=COCc1ccc(Cl)c(-c2ccc(NC(=O)c3conc3C)nc2N)c1 class=true
chemical_smiles=COCc1nocc1C(=O)Nc1ccc(-c2ccccc2Cl)c(N)n1 class=false
chemical_smiles=CCOc1ccc(F)cc1-c1ccc(NC(=O)c2ccnn2C)nc1N class=true
chemical_smiles=COc1cccc(-c2ccc(NC(=O)c3conc3C)nc2N)c1OC class=false
chemical_smiles=COCc1nocc1C(=O)Nc1ccc(-c2cc(F)ccc2Cl)c(N)n1 class=true
